test system: antibodies present in IFA sero-positive sera from patients infected with Bartonella henselae (IgG); assay: IgG ELISA with synthetic polypeptides of 17-kDa protein as coating antigen; type: binding, human; conditions: panel study, 47 human sera (27 IFA positive, 20 IFA negative), interactive dot diagram

Substance: EDLQKQLKSDKEVKLRLE (listed as Bartonella henselae) [Peptide 3C-RD2, peptide 3C with substitution of the last 10 AA at C-terminus]
specificity (%): 0
//
Substance: LKLELELVQDSDKQEKRK (listed as Bartonella henselae) [Peptide 3C-RD, peptide 3C with substitution of the entire 18 AA]
specificity (%): 0

###

Measured specificity by item
Test system: antibodies present in IFA sero-positive sera from patients infected with Bartonella henselae (IgG)
Assay: IgG ELISA with synthetic polypeptides of 17-kDa protein as coating antigen
Type: binding, human
Details: ELISA, panel of 47 human sera (27 IFA positive, 20 IFA negative), ROC analysis of OD450nm
Excerpt: A panel of 47 human sera, including 27 IFA positive and 20 WA negative sera, was used. ROC analysis was used to analysis the binding activity via OD450nm (FIGS. 19 and 21). AUCs for peptide 3C, 3B, 3D, and 3E were 0.9, 0.5, 0.5, and 0.8 respectively (FIGS. 19 and 21). […] Thus, the antibody recognition site seems to be present on peptide 3C (but not peptides 3B and 3D). We adopted an IgG ELISA assay and evaluated the binding activity of the modified peptides towards IgG. […]
Parameter: specificity (%)

Sequence Data: EKLEKSDVRL (listed as Bartonella henselae) [Peptide 3E, synthetic polypeptide, aa 139-148 of 17-kDa protein]
Parameter: specificity
Assay Value: 88.2
--
Sequence Data: EDLQKQLKEKLEKSDVRL (listed as Bartonella henselae) [Peptide 3C, synthetic polypeptide, aa 131-148 of 17-kDa protein]
Parameter: specificity
Assay Value: 88.2
--
Sequence Data: QAKDTKTKEELREEQTQK (listed as Bartonella henselae) [Peptide 3B, synthetic polypeptide, aa 111-128 of 17-kDa protein]
Parameter: specificity
Assay Value: 90.0
--
Sequence Data: EEQTQKKHEDLQKQLK (listed as Bartonella henselae) [Peptide 3D, synthetic polypeptide, aa 123-138 of 17-kDa protein]
Parameter: specificity
Assay Value: 25.0

###

tested on: antibodies present in IFA sero-positive sera from patients infected with Bartonella henselae (IgG); assay: IgG ELISA with synthetic polypeptides of 17-kDa protein as coating antigen; format: binding, human; details: panel study, 47 human sera (27 IFA positive, 20 IFA negative), interactive dot diagram

Substance: ED_QKQLKEKLEKSDVRL (EDQKQLKEKLEKSDVRL; listed as Bartonella henselae) [Peptide 3C-Del, peptide 3C with leucine at third position from N-terminus deleted]
specificity: ~90%
--
Substance: EQTQKKHEDLQKQLKEKLEKSDVRL (listed as Bartonella henselae) [Peptide 3C-Ext2, peptide 3C with addition of 7 AA at N-terminus]
specificity: ~90%
--
Substance: EDLQKQVKEKLEKSDVRL (listed as Bartonella henselae) [Peptide 3C-CS3, peptide 3C with conservative substitution L to V]
specificity: ~90%
